Attribution: ChEMBL document CHEMBL1148702

- System: Liver microsomes
- assay-setup: human
property: Stability (%)

See these solved cases before continuing.
[[record]]
chemical_structure = "O=C(NC12CC3CC(CC(C3)C1)C2)N[C@H]1CC[C@@H](OCc2ccccc2Cl)CC1"
target = "Liver microsomes"
recorded_number = 25

[[record]]
chemical_structure = "O=C(NC12CC3CC(CC(C3)C1)C2)N[C@H]1CC[C@H](OCc2c(F)cccc2F)CC1"
target = "Liver microsomes"
recorded_number = 43

[[record]]
chemical_structure = "O=C(NC12CC3CC(CC(C3)C1)C2)N[C@H]1CC[C@@H](Oc2ccc(Br)cc2)CC1"
target = "Liver microsomes"
recorded_number = 35


I: O=C(NC12CC3CC(CC(C3)C1)C2)N[C@H]1CC[C@@H](Oc2cc(F)cc(F)c2)CC1
II: CC(C)Oc1cc(F)c(CO[C@H]2CC[C@@H](NC(=O)NC34CC5CC(CC(C5)C3)C4)CC2)c(F)c1
III: O=C(NC12CC3CC(CC(C3)C1)C2)N[C@H]1CC[C@H](OCc2ccccc2Cl)CC1
IV: COc1ccc(O[C@H]2CC[C@H](NC(=O)NC34CC5CC(CC(C5)C3)C4)CC2)cc1
Query: Arrange by Stability, high to low. Provide your answer as the labels ordered per the instruction.
Reply: IV, III, II, I
